# Test system: SW-620 colon
# method description: NCI-60 one-dose screen, 48 h
# assay conditions: 10 µM unless noted
About 83,000 compounds went through this panel and 20% of them were active in at least one assay; those are over-represented in the sample as a whole. Calls of active or inactive are those of the source. The calls were made as follows: active = growth percent below 10; inactive = the rest.
Respond with a class label; see active, inactive

Consider the worked cases shown below.
CC(C)C1=CC2=C(C=O)C[C@@H]3[C@](C)(CCC[C@@]3(C)C(=O)OCC#CCN3CCCC3)[C@H]2CC1    inactive
COc1ccc(/C=C2/C(=O)NC(SCC(=O)N3CCN(c4cc5c(cc4F)c(=O)c(C(=O)O)cn5C4CC4)CC3)=NC2N)cc1OC (stereo not given)    inactive
CCN(CC)c1ccc(C(=N)c2ccc(N(CC)CC)cc2)cc1    active
COc1ccc(-c2c(N)n[nH]c2-c2cc(OC)c(OC)c(OC)c2)cc1    inactive
O=c1cc/c(=N\Nc2ccccc2)c(=O)/c1=N/Nc1ccccc1    inactive

# lookup: test call for C=C1CCC[C@]2(C)CCC[C@H](C)[C@@H](OC(C)=O)[C@@H]3OC(=O)C(=C)[C@@H]3C[C@H]1O2
inactive

What did the test return for Cn1c(=O)cc(NC(=O)CN2CCN(c3cc4c(cc3F)c(=O)c(C(=O)O)cn4C3CC3)CC2)[nH]c1=O ?
inactive

Call for entry Cc1ccc2nc(Cl)cc(=O)n2c1 :
inactive

Recorded test call requested for CN1CCN(Cc2ccc(NC(=O)c3cncc(C#Cc4cnc(N)c5ccncc45)c3)cc2C(F)(F)F)CC1
active

Hey, what did the test say about CC(=O)Oc1cccc(S(=O)(=O)n2cc(C(=O)C(=O)Nc3ccncc3)c3ccccc32)c1 ?
inactive

What outcome does the record of this test show for COc1ccc(C2=Nn3c(nnc3-n3nc(C)cc3C)SC2)cc1 ?
inactive

Identify the outcome logged in this assay for the compound shown: CCOC(=O)c1cn2c3c(cc(C)cc3c1=O)C(=O)/C(=C/c1ccccc1)C2
inactive

----------
# System: CCRF-CEM leukemia
# method description: NCI-60 one-dose screen, 48 h (100 = growth as untreated, 0 = no growth, -100 = all killed)
# assay conditions: 10 µM unless noted
About 83,000 compounds went through this panel and 20% of them were active in at least one assay; those are over-represented in the sample as a whole.
Assign labels as follows, please: yes for growth below 50%; no for growth equal to or exceeding 50%.

# count of solved cases: 3
COc1cc(C2NN=C3c4ccccc4CCC32)cc(OC)c1OC (stereo not given)    yes
CC12CCCC(CC(=O)c3[nH]c4ccccc4c31)C2 (stereo not given)    yes
C=CCn1c2ccccc2c2c3c(c4c5ccccc5n(CC=C)c4c21)C(=O)N(O)C3=O    yes

Lab log: compare recorded growth with 50%; is it strictly lower for Cc1csc(NC(c2ccc(Br)cc2)c2c(C)nc3ccccn23)n1 (stereo not given) ?
no

----------
Listed next: entries and their corresponding growth.
# Test system: DU-145 prostate
# method description: NCI-60 one-dose screen, 48 h (100 = growth as untreated, 0 = no growth, -100 = all killed)
# assay conditions: 10 µM unless noted
This is part of a sample that, as a whole, favours compounds with a hit. Of some 83,000 tested, about 20% had one in any assay.
Your answer is read as %, so omit the unit and give the number.

Solved cases (3 shown):
c1ccc(-c2nc(N3CCNCC3)c3nc(-c4ccccc4)oc3n2)cc1    -63.2
CCOC(=O)C1C(=O)C=C(c2ccc(OC)cc2)CC1c1sc(N(C)Cc2ccccc2)nc1Cl (stereo not given)    91.5
COc1ccc(S(=O)(=O)NCCCNc2nccc(-n3ccc4cccnc43)n2)cc1    91.7

Lab note: CCN(CC)CCOC(=O)C(c1ccccc1)(c1ccccc1)C(C)C gave growth of 99

The measured growth associated with CCCCN(CCCC)c1ccc(C(=N)c2ccc(N(CCCC)CCCC)cc2)cc1 reads -98.6

----------
# Test system: MALME-3M melanoma
# method description: NCI-60 one-dose screen, 48 h (100 = growth as untreated, 0 = no growth, -100 = all killed)
# assay conditions: 10 µM unless noted
The panel holds about 83,000 compounds, 20% with a hit somewhere; the sample as a whole holds those more often.
Each entry below carries its recorded growth.
Quick note: give the figure in %, leave out the unit.

CC12CCC3C4(C)COC(c5ccco5)OC4CCC3(C)C1CC(C1=CCOC1=O)O2 (stereo not given)    98.5

Lab note: measured growth of COc1cc(/C=C/C(=O)c2cccc(-n3cc(-c4cc(OC)c(OC)c(OC)c4)[nH]c3=O)c2)cc(OC)c1OC was 28.9

Entry CCOC(=O)/C(C#N)=C1/C(=O)Nc2ccccc21 , growth reported as 108

The recorded growth for CCOC(=O)c1cn2c3c(cccc3c1=O)C(=O)/C(=C/c1cccc(Cl)c1Cl)C2 is 116

----------
# Tested on: K-562 leukemia
# method description: NCI-60 one-dose screen, 48 h (100 = growth as untreated, 0 = no growth, -100 = all killed)
# assay conditions: 10 µM unless noted
This is part of a sample that, as a whole, favours compounds with a hit. Of some 83,000 tested, about 20% had one in any assay.
Field: class. Source value: growth. Ranges: Low = under 8%, Mid = from 8% up to 70%, High = 70% and over

COc1ccc(C(=O)N2NC(=O)/C(=C/c3ccc(Br)cc3)N=C2c2ccccc2)cc1    High

// return the class label for COc1cc(-c2nn(-c3cccc(NC(=O)c4cccc(C(F)(F)F)c4)c3)cc2-c2ccncc2)ccc1Cl
Low

Looking at Cc1nc2cncc(C#Cc3cncc(C(=O)Nc4ccc(CN5CCN(C)CC5)c(C(F)(F)F)c4)c3)c2nc1C , which class would you pick?
Low

Pick a category. Item: CCOC(=O)c1ccc2c(c1)nc(-c1ccc(OCc3ccccc3)c(OC)c1)n2-c1cc(C(C)(C)C)[nH]n1
Mid

Dear colleague, I would appreciate it if you could identify the bin for O=C1Nc2ccc3c(c2/C1=C\c1cc2c(cc1Br)OCO2)OCO3 and reply at your convenience.
Mid

Could you place CCCCCCN1CSC(=S)N(CCCCCC)C1 in its proper category? Many thanks.
High

Which class does Clc1ccc2c(NC3CCC(NC4CCCCC4)CC3)ccnc2c1 (stereo not given) fall in?
Low

Sort C=C1C(=O)O[C@H]2[C@H]1CC/C(Cn1cc(-c3cccc(Cl)c3)nn1)=C\CC[C@@]1(C)O[C@@H]21 into one of the categories.
Low

Hello team, could you let me know which band the following compound falls into: COc1cccc(/C=C2\Oc3cc(OCCCN4CCCC4)ccc3C2=O)c1OC
High

The entry to classify is O=S1(=O)CCC(N(/N=C/c2ccco2)c2ccccc2)C1 (stereo not given) ; which class holds it?
High

----------
# System: NCI-H322M lung
# method description: NCI-60 one-dose screen, 48 h (100 = growth as untreated, 0 = no growth, -100 = all killed)
# assay conditions: 10 µM unless noted
Compounds without any hit were thinned out: in the full panel of roughly 83,000, 20% have a hit.
Lab note - cut at 80% for growth: Criterion met if strictly below, Criterion not met if not.

// below: answered compounds
COc1ccc(S(=O)(=O)NCCCNc2nccc(-n3ccc4cccnc43)n2)cc1    Criterion not met
O=C(c1ccccc1)C1OC1c1ccc([N+](=O)[O-])cc1 (stereo unspecified)    Criterion not met

Given COc1ccc(S(=O)(=O)Nc2cc(/C=C\c3cc(OC)c(OC)c(OC)c3)cc(OC)c2OC)cc1 , is recorded growth strictly lower than 80%?
Criterion met

Please state whether growth is below 80% for O=C(c1c[nH]c(=O)c(-c2ccccc2)c1)c1ccccc1O
Criterion not met

Answer whether the compound CCCCN(CCCC)C(=N)c1ccnc2ccccc12 has growth strictly less than 80%
Criterion not met

For this compound, is growth lower than 80%? C=C1C(=O)O[C@H]2[C@H]1CC/C(Cn1cc(-c3cccc(Cl)c3)nn1)=C\CC[C@@]1(C)O[C@@H]21
Criterion met

----------
# Tested on: CAKI-1 renal
# method description: NCI-60 one-dose screen, 48 h (100 = growth as untreated, 0 = no growth, -100 = all killed)
# assay conditions: 10 µM unless noted
The panel holds about 83,000 compounds, 20% with a hit somewhere; the sample as a whole holds those more often.
Quick rule: growth of at least 70% means satisfied, below that means not satisfied.

See these solved cases before continuing.
C=C(C)[C@@H]1CC[C@]2(C(=O)N3CCNCC3)CC[C@]3(C)[C@H](CC[C@@H]4[C@@]5(C)C/C(=C/c6ccncc6)C(=O)C(C)(C)[C@@H]5CC[C@]43C)[C@@H]12    satisfied
O=c1[nH]c(NCc2ccccc2)nc2nc(Nc3ccc(NC(=S)Nc4ccccc4)cc3)nc(-c3ccc(O)cc3O)c12    satisfied

Is growth at least 70%? Consider Cc1ccc(NS(=O)(=O)c2cc(C)ccc2C)cc1
not satisfied

Can C=C1CCC2C(C)(CO)C(O)CCC2(C)C1C/C=C1/C(=O)OCC1Oc1ccccc1C (stereo not given) be said to have growth at or above 70%?
satisfied

Decide: is the reported value of growth for CC(C)CSc1nc(NN)c(C#N)c(-c2ccccc2)n1 equal to or greater than 70%?
satisfied

Given O=c1ccn(-c2ncnc3nc[nH]c23)cc1 , state whether its growth is at least 70%.
satisfied

Tell me whether growth is at least 70% here: O=C(/C=C/c1cc(-c2ccc3c(c2)OCO3)n[nH]1)c1ccc2c(c1)OCO2
satisfied

Is growth for COc1cc(/C=C/C(=O)c2cccc(-n3cc(-c4cc(OC)c(OC)c(OC)c4)[nH]c3=O)c2)cc(OC)c1OC at or above 70%?
not satisfied

Kindly determine if growth recorded for C=CCn1cc(-c2nc3ccccc3s2)c2cc(-c3ccc4c5c(cccc35)C(=O)N(CCN3CCNCC3)C4=O)ccc21 is above or exactly 70%.
satisfied

Given the entry COc1ccc(C2C=C(c3ccc(N)cc3)N=C3SC=CN32)cc1OC (stereo not given) , answer whether its growth meets or surpasses 70%.
satisfied

Please check the record COc1ccc(/C=C2\N=C(c3ccccc3)N(C(=O)c3ccccc3O)NC2=O)cc1 and state if its growth is at or above 70%.
satisfied

In plain terms: is recorded growth at least 70% for Cc1cc(C(C)(C)C)ccc1S ?
satisfied

Hello, I need to know if O=C(c1c[nH]c(=O)c(-c2ccccc2)c1)c1ccccc1O has measured growth not below 70%. Thanks!
satisfied

Hi team, for COc1cc(Cn2cc3c(c2)-c2oncc2CC3)cc(OC)c1OC , is the recorded growth at or above 70%?
not satisfied

Confirm if growth reported for the compound O=[N+]([O-])c1cc(S(=O)(=O)Oc2ccccc2)ccc1Cl is 70% or above.
not satisfied

Please indicate if the recorded growth for Cc1cc(N/N=C/c2nc(-c3ccc(Br)cc3)oc2C)c2cc(Cl)ccc2n1 meets or exceeds 70%.
satisfied

Does the compound ClC(Cl)c1nc(-c2ccccc2)nc2cc(-c3ccccc3)nn12 have recorded growth that is 70% or more?
not satisfied

# bool: growth of Nc1cc2c([nH]c[n+]2CC#CCCl)c(SCC#CCCl)n1 >= 70%
not satisfied

Does growth meet or surpass 70% for COc1cc2c(cc1OCCCCCn1c3ccccc3c3ccccc31)N=C[C@@H]1CCCN1C2=O ?
not satisfied

Given CN(C[C@H]1Cc2c(cccc2N2CCN(Cc3ccccn3)CC2)CN1)[C@H]1CCCc2cccnc21 , state whether its growth is at least 70%.
not satisfied

Answer whether growth of CNc1ccc(Br)c2c1C(=O)c1ccccc1C2=O is greater than or equal to 70%.
satisfied

Quick check, growth >= 70%? O=C(Nc1ccncc1)C(=O)c1cn(S(=O)(=O)c2ccc(Br)cc2)c2ccccc12
not satisfied
